Source of measurements: ChEMBL document CHEMBL1208682

Listing of recorded MIC by entry.
test system: Mycobacterium tuberculosis; assay: Antituberculosis activity against multi drug-resistant Mycobacterium tuberculosis after 7 days using resazurin dye by broth microdilution assay; type: functional; settings: 168 h

Observe how each entry below is paired with its result.
[[record]]
smiles_data = "Oc1cc(F)ccc1/C=N/Nc1cc(C(F)(F)F)nc2c(C(F)(F)F)cccc12"
test_readout = "MIC"
reported = "> 50 µM"

[[record]]
smiles_data = "COc1ccc2[nH]cc(/C=N/Nc3cc(C(F)(F)F)nc4c(C(F)(F)F)cccc34)c2c1"
test_readout = "MIC"
reported = "> 50 µM"


Now for a further compound.
Recorded MIC (compound `FC(F)(F)c1cc(N/N=C/c2cccs2)c2cccc(C(F)(F)F)c2n1` ): > 50 µM
